Molecular target: helicase domain of the Pol θ protein (Homo sapiens, UniProt O75417)
Sequence (O75417 102-554 limits assumed): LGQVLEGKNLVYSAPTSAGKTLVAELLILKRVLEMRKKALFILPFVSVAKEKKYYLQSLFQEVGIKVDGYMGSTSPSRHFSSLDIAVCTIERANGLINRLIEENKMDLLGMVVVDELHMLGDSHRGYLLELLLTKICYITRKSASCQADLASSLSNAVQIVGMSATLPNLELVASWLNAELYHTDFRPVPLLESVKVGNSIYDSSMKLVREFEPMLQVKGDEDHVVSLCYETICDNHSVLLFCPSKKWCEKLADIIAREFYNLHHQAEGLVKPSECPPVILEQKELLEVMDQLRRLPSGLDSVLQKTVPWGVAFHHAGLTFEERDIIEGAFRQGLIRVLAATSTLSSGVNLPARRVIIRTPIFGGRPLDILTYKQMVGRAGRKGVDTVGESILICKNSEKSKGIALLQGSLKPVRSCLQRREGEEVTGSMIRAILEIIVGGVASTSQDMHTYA
Type: biochemical
Quick rule for you: IC50 under 20 nM gets true (1), anything else gets false (0).

- SMI: "COc1cnc(C(F)F)cc1-c1cc(-n2cccc(F)c2=O)ncc1C(=O)Nc1nc(N2CC3(COC3)C2)ns1"
  ASSIGNED_LABEL: "false (0)"
- SMI: "COc1cnc(C(F)F)cc1-c1cc(-n2cccc(F)c2=O)ncc1C(=O)Nc1nc(N2CC3CC(C2)N3C)ns1"
  ASSIGNED_LABEL: "false (0)"
- SMI: "COc1cnc(C(F)F)cc1-c1cc(-n2cccc(F)c2=O)ncc1C(=O)Nc1nc(C2CC2)ns1"
  ASSIGNED_LABEL: "true (1)"
- SMI: "COc1cnc(C(F)F)cc1-c1cc(-n2cccc(F)c2=O)ncc1C(=O)Nc1nc(-c2ccc(Cl)cc2)ns1"
  ASSIGNED_LABEL: "false (0)"
- SMI: "COc1cnc(C(F)F)cc1-c1cc(-n2cccc(F)c2=O)ncc1C(=O)Nc1nc(C2CCC2)ns1"
  ASSIGNED_LABEL: "true (1)"

---

Test system: DLD1 wild type
Assay: Cell viability assay (CTG assay), DLD1 wild type cells
Assay type: cell-based
Details: Homo sapiens, DLD-1, 240 h; CellTiter Glo, read on Day 10, initial concentration 30 µM
Listed compounds paired with reported IC50

- SMI: "COc1cnc(C(F)F)cc1-c1cc(-n2cccc(F)c2=O)ncc1C(=O)Nc1nc(-c2ccc(Cl)cc2)ns1"
  IC50: "> 50000 nM"
- SMI: "COc1cnc(Cl)cc1-c1cc(-n2cccc(F)c2=O)ncc1C(=O)Nc1nc(-c2c(C)cnn2C)ns1"
  IC50: "> 5000 nM"
- SMI: "COc1cnc(C(F)F)cc1-c1cc(-n2cccc(F)c2=O)ncc1C(=O)Nc1nc(N2CCOCC2)ns1"
  IC50: "> 5000 nM"

---

Molecular target: helicase domain of the Pol θ protein (Homo sapiens, UniProt O75417)
Type: biochemical
Conditions: ATPase activity, ADP-Glo, ssDNA substrate, 60 min at room temperature, initial concentration 10 µM; read-out: Biochemical experiment IC50
Listed compounds paired with reported IC50
QUANTITY: IC50 (nM)

- SMI: "COc1cnc(C(F)F)cc1-c1cc(-n2cccc(F)c2=O)ncc1C(=O)Nc1nc(Cl)ns1"
  QUANTITY: "IC50"
  EXPERIMENTAL_VALUE: 8.31
- SMI: "COc1cnc(C(F)F)cc1-c1cc(-n2cccc(F)c2=O)ncc1C(=O)Nc1nc(C)ns1"
  QUANTITY: "IC50"
  EXPERIMENTAL_VALUE: 14
- SMI: "COc1cnc(C(F)F)cc1-c1cc(-n2cccc(F)c2=O)ncc1C(=O)Nc1nc(-c2c(C)ncn2C)ns1"
  QUANTITY: "IC50"
  EXPERIMENTAL_VALUE: 6.11
- SMI: "COc1cnc(C(F)F)cc1-c1cc(-n2cccc(F)c2=O)ncc1C(=O)Nc1nc(C(C)(C)C)ns1"
  QUANTITY: "IC50"
  EXPERIMENTAL_VALUE: 15.2
- SMI: "COc1cnc(C(F)F)cc1-c1cc(-n2cccc(F)c2=O)ncc1C(=O)Nc1nc(-c2c(C)cnn2C)ns1"
  QUANTITY: "IC50"
  EXPERIMENTAL_VALUE: 3.63
- SMI: "COc1cnc(C(F)F)cc1-c1cc(-n2cccc(F)c2=O)ncc1C(=O)Nc1nccs1"
  QUANTITY: "IC50"
  EXPERIMENTAL_VALUE: 20.9
- SMI: "COc1cnc(C(F)F)cc1-c1cc(-n2cccc(F)c2=O)ncc1C(=O)Nc1nc(-c2ccccn2)ns1"
  QUANTITY: "IC50"
  EXPERIMENTAL_VALUE: 8.23
- SMI: "CCCc1nsc(NC(=O)c2cnc(-n3cccc(F)c3=O)cc2-c2cc(C(F)F)ncc2OC)n1"
  QUANTITY: "IC50"
  EXPERIMENTAL_VALUE: 9.69
- SMI: "COc1cnc(C(F)F)cc1-c1cc(-n2cccc(F)c2=O)ncc1C(=O)Nc1nc(-c2ncccn2)ns1"
  QUANTITY: "IC50"
  EXPERIMENTAL_VALUE: 25.1
- SMI: "COc1cnc(Cl)cc1-c1cc(-n2cccc(F)c2=O)ncc1C(=O)Nc1nc(C2CC2)ns1"
  QUANTITY: "IC50"
  EXPERIMENTAL_VALUE: 8.57
- SMI: "COc1cnc(C(F)F)cc1-c1cc(-n2cccc(F)c2=O)ncc1C(=O)Nc1nc(-c2ccncc2)ns1"
  QUANTITY: "IC50"
  EXPERIMENTAL_VALUE: 5.58
- SMI: "COc1cnc(C(F)F)cc1-c1cc(-n2cccc(F)c2=O)ncc1C(=O)Nc1nc(C(C)C)ns1"
  QUANTITY: "IC50"
  EXPERIMENTAL_VALUE: 8.98
- SMI: "COc1cnc(C(F)F)cc1-c1cc(-n2cccc(F)c2=O)ncc1C(=O)Nc1nc(-c2c(C)noc2C)ns1"
  QUANTITY: "IC50"
  EXPERIMENTAL_VALUE: 3.41
- SMI: "COc1cnc(C(F)F)cc1-c1cc(-n2cccc(F)c2=O)ncc1C(=O)Nc1nc(-c2ccccc2)ns1"
  QUANTITY: "IC50"
  EXPERIMENTAL_VALUE: 13.4
- SMI: "COc1cnc(C(F)F)cc1-c1cc(-n2cccc(F)c2=O)ncc1C(=O)Nc1nc(N2CC3CC(C2)N3)ns1"
  QUANTITY: "IC50"
  EXPERIMENTAL_VALUE: 158
